# Internalization % TOP values compiled below
Molecular target: human GLP-1R (SNAP-GLP-1R expressed in HEK293 cells) (human) (UniProt P43220)
Sequence (P43220 24-463): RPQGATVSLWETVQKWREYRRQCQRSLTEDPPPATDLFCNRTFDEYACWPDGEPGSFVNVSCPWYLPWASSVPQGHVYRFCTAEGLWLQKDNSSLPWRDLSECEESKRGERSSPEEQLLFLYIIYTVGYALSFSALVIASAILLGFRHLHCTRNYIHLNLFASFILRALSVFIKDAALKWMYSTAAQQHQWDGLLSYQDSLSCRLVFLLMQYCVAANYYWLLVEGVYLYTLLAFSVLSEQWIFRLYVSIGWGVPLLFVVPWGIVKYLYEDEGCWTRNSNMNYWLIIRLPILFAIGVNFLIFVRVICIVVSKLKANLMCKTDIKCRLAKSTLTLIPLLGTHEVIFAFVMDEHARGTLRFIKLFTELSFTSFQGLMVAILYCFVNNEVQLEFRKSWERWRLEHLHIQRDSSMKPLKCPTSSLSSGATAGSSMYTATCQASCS
Test: cell-based or functional assay
Starred links: 1 amine or outer side, 2 acyl side, 3 side chain; linkers in the order of their positions; H or OH if unused. Non-standard residues stand in square brackets, D forms with d. Groups on a side chain read outwards from the residue. No end group written: not given here. *: point of attachment. C20 diacid = O=C(O)CCCCCCCCCCCCCCCCCCC(=O)*; C18 diacid = O=C(O)CCCCCCCCCCCCCCCCC(=O)*; γGlu = O=C(O)[C@H](CCC(=O)[*:2])N[*:1]; αMeL = CC(C)C[C@](C)(N)C(=O)O; Dap = NC[C@H](N)C(=O)O; AEEA = NCCOCCOCC(=O)O; Aib = CC(C)(N)C(=O)O
// return numeric value only (unit: %, not printed)

The examples below pair each entry with its known result.
Input line: Tell me Internalization % TOP reported for YXQGTFTSDFSXXLDKKAQXAFIEWLLEGGPSSGAPPPEGS (synthetic construct; SITE 2: note = 2-Aminoisobutyric Acid; SITE 12: note = L-ornithine; SITE 13: note = alpha-methyl-leucine; SITE 17: note = Lysine is chemically modified through conjugation of the epsilon-amino group of the Lysine side chain with (2-[2-(2-Amino-ethoxy)-ethoxy]-acetyl)-(gamma-Glu)) [Example 121]
Output line: 46.3

Input line: Tell me its Internalization % TOP given YXQGTFTSDXSRXLDKKAQXAFIEYLIEXGESSGAPPPSGS (synthetic construct; SITE 2: note = 2-Aminoisobutyric Acid; SITE 10: note = 3-(4-Pyridyl)-L-alanine; SITE 13: note = alpha-methyl-leucine; SITE 17: note = Lysine is chemically modified through conjugation of the epsilon-amino group of the Lysine side chain with (2-[2-(2-Amino-ethoxy)-ethoxy]-acetyl)) [Example 187] as the entry.
Output line: 57

Input line: Tell me Internalization % TOP reported for YXQGTFTSDXSRXLDKKAQXAFIEYLLAGGPSSGAPPPSGE (synthetic construct; SITE 2: note = 2-Aminoisobutyric Acid; SITE 10: note = 3-(4-Pyridyl)-L-alanine; SITE 13: note = alpha-methyl-leucine; SITE 17: note = Lysine is chemically modified through conjugation of the epsilon-amino group of the Lysine side chain with (2-[2-(2-Amino-ethoxy)-ethoxy]-acetyl)) [Example 113]
Output line: 64.6

Input line: Note Internalization % TOP for the binder shown: YXQGTFTSDFSXXLDKKAQXAFIEYLLEXGXSSGAPPPSGE (synthetic construct; SITE 2: note = 2-Aminoisobutyric Acid; SITE 12: note = L-ornithine; SITE 13: note = alpha-methyl-leucine; SITE 17: note = Lysine is chemically modified through conjugation of the epsilon-amino group of the Lysine side chain with (2-[2-(2-Amino-ethoxy)-ethoxy]-acetyl)-(gamma-Glu)) [Example 248]
Output line: 39.5

Input line: Give reported Internalization % TOP value for YXQGTFTSDFSXXLDKKAQXAFIEYLLEAGPSSGEPPPSGE (synthetic construct; SITE 2: note = 2-Aminoisobutyric Acid; SITE 12: note = L-ornithine; SITE 13: note = alpha-methyl-leucine; SITE 17: note = Lysine is chemically modified through conjugation of the epsilon-amino group of the Lysine side chain with (2-[2-(2-Amino-ethoxy)-ethoxy]-acetyl)2-(gamma-Glu)) [Example 117]
Output line: 51

Input line: Supply reported Internalization % TOP belonging to this binder: YXQGTFTSDYSXXLDKKAQXAFIEYLLEGGESSGAPPPSGS (synthetic construct; SITE 2: note = 2-Aminoisobutyric Acid; SITE 12: note = L-ornithine; SITE 13: note = alpha-methyl-leucine; SITE 17: note = Lysine is chemically modified through conjugation of the epsilon-amino group of the Lysine side chain with (2-[2-(2-Amino-ethoxy)-ethoxy]-acetyl)-(gamma-Glu)) [Example 359]
Output line: 74.4

Input line: Determine its reported Internalization % TOP: YXQGTFTSDXSRXLDKKAQXAFIEYLIEXGESSGAPPPSGE (synthetic construct; SITE 2: note = 2-Aminoisobutyric Acid; SITE 10: note = 3-(4-Pyridyl)-L-alanine; SITE 13: note = alpha-methyl-leucine; SITE 17: note = Lysine is chemically modified through conjugation of the epsilon-amino group of the Lysine side chain with (2-[2-(2-Amino-ethoxy)-ethoxy]-acetyl)) [Example 225]
Output line: 56.7

Input line: # return recorded Internalization % TOP for input Y[Aib]QGTFTSDFS[Dap][αMeL]LDKK([AEEA-γGlu-C18 diacid])AQ[Aib]AFIEYLLE[Aib]GPSSGAPPPSGS-NH2 [Example 134]
Output line: 22.3

Input line: Please report the measured Internalization % TOP for YXQGTFTSDXSXXLDKKAQXAFIEYLLAGGPSSGEPPPSGS (synthetic construct; SITE 2: note = 2-Aminoisobutyric Acid; SITE 10: note = 3-(4-Pyridyl)-L-alanine; SITE 12: note = L-ornithine; SITE 13: note = alpha-methyl-leucine; SITE 17: note = Lysine is chemically modified through conjugation of the epsilon-amino group of the Lysine side chain with (2-[2-(2-) [Example 154]
Output line: 65.9

Input line: Specify reported Internalization % TOP for the binder shown: Y[Aib]QGTFTSDYSI[αMeL]LDKQAAK([AEEA-AEEA-γGlu-C20 diacid])QFVEWLIA[Aib]GPSSGEPPPAEG-NH2 [Example 334]
Output line: 96.8

Others:
Input line: Provide measured Internalization % TOP value, entry: YXQGTFTSDFSXXLDKKAQXAFIEYLLEXGPSSGEPPPSGT (synthetic construct; SITE 2: note = 2-Aminoisobutyric Acid; SITE 12: note = L-ornithine; SITE 13: note = alpha-methyl-leucine; SITE 17: note = Lysine is chemically modified through conjugation of the epsilon-amino group of the Lysine side chain with (2-[2-(2-Amino-ethoxy)-ethoxy]-acetyl)2-(gamma-Glu)) [Example 167]
Output line: 44.7

Input line: Give a short answer stating reported Internalization % TOP for YXQGTFTSDFSXXLDKKAQXAFIEYLLEAGPSSGHPPPSGH (synthetic construct; SITE 2: note = 2-Aminoisobutyric Acid; SITE 12: note = L-ornithine; SITE 13: note = alpha-methyl-leucine; SITE 17: note = Lysine is chemically modified through conjugation of the epsilon-amino group of the Lysine side chain with (2-[2-(2-Amino-ethoxy)-ethoxy]-acetyl)2-(gamma-Glu)) [Example 255] .
Output line: 51.8
